# Assay System: TYR from Agaricus bisporus (AbTYR) (Agaricus bisporus)
# Sequence (C7FF04 1-392 limits assumed): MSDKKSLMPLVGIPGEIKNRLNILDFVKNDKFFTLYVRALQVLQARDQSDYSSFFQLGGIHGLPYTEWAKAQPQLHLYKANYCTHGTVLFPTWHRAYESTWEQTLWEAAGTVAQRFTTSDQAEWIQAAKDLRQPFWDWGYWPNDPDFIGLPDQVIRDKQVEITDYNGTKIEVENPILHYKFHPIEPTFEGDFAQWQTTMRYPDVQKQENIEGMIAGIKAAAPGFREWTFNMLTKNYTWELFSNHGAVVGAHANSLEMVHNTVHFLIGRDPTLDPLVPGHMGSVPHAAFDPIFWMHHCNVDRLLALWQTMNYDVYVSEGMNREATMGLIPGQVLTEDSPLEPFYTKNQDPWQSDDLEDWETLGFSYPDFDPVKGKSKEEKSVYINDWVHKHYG
# Measurement Protocol: Inhibition of diphenolase activity of AbTYR (L-DOPA as substrate);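 further: absorbance measured spectrophotometrically with L-DOPA as substrate, inhibition expressed as percent relative to control sample, IC50 interpolated from dose-response curves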
# Test Context: IC50 [μM]±SD, inhibition of diphenolase activity of AbTYR, L-DOPA substrate, three replicates
Threshold check on IC50: strictly below 20 µM is Satisfied; on or above 20 µM is Not satisfied.

[[record]]
smiles_input = "O=C(c1ccccc1[N+](=O)[O-])N1CCN(c2ccc(O)cc2)CC1"
group = "Satisfied"

[[record]]
smiles_input = "COc1ccccc1C(=O)N1CCN(c2ccc(O)cc2)CC1"
group = "Satisfied"

[[record]]
smiles_input = "O=C(c1cccc(F)c1)N1CCN(c2ccc(O)cc2)CC1"
group = "Not satisfied"

[[record]]
smiles_input = "O=C(c1cccc(C(F)(F)F)c1)N1CCN(c2ccc(O)cc2)CC1"
group = "Satisfied"

[[record]]
smiles_input = "O=C(c1ccc(C(F)(F)F)cc1C(F)(F)F)N1CCN(c2ccc(O)cc2)CC1"
group = "Satisfied"

[[record]]
smiles_input = "O=C(c1ccc(F)cc1F)N1CCN(c2ccc(O)cc2)CC1"
group = "Satisfied"

[[record]]
smiles_input = "Cc1cccc(C(=O)N2CCN(c3ccc(O)cc3)CC2)c1"
group = "Not satisfied"

[[record]]
smiles_input = "Cc1ccccc1C(=O)N1CCN(c2ccc(O)cc2)CC1"
group = "Not satisfied"

[[record]]
smiles_input = "Cc1ccc(C(=O)N2CCN(c3ccc(O)cc3)CC2)cc1"
group = "Not satisfied"

